Parameter % Found: see the listing below.
Test: Accelerated stability study of coated 0.625 mg conjugated estrogens tablets (active compounds and degradation products per USP, LOD)
Format: physicochemical
Conditions: sugar-coated tablets, Lot EXPWS 1246; 40c, 75% RH/2 mnth

# compound, % Found (%)
measured = [
    ("C[C@]12CCc3c(ccc4cc(O)ccc34)[C@@H]1CC[C@H]2O [17a-dihydroequilenin]", 2.2),
    ("C[C@]12CC[C@H]3C(=CCc4cc(O)ccc43)[C@@H]1CC[C@@H]2O [17b-dihydroequilin]", 1.4),
    ("C[C@]12CC[C@@H]3c4ccc(O)cc4CC[C@H]3[C@@H]1CC[C@H]2O [17a-estradiol]", 3.9),
    ("C[C@]12CC[C@H]3C(=CCc4cc(O)ccc43)[C@@H]1CCC2=O [Equilin]", 23),
    ("C[C@]12CCc3c(ccc4cc(O)ccc34)[C@@H]1CCC2=O [Equilenin]", 2.8),
    ("C[C@]12CC[C@@H]3c4ccc(O)cc4CC[C@H]3[C@@H]1CC[C@@H]2O [17b-estradiol]", 0.62),
    ("C[C@]12CC[C@H]3C(=CCc4cc(O)ccc43)[C@@H]1CC[C@H]2O [17a-dihydroequilin]", 14.5),
    ("C[C@]12CCC3=C(CCc4cc(O)ccc43)[C@@H]1CCC2=O [d8,9 dehydroesterone]", 4.53),
    ("C[C@]12CCc3c(ccc4cc(O)ccc34)C1CCC2O (stereo partly drawn) [17b-dihydroequilenin]", 0.44),
]
